Target: DLG4_2, P78352
Sequence (P78352 155-259): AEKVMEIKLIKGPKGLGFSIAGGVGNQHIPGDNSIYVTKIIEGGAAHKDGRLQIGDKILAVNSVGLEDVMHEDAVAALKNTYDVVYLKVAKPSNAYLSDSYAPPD
Assay: holdup assay
Set-up: key: below the threshold = too weak to quantify, mostly under pKd 3.1 to 4
Conditions: plain residues with an end cap or a label only (N-terminal biotin on a linker: ado-ado)
Below: a set of entries, each annotated with reported pKd.
experimentalReadout: pKd

In [3]: df
Out[3]:
                          binder  number
 0  MQHQRTHTRV [ZSCAN30, Q86W11]    4.95
 1   NTANRRTTPV [CACNG2, Q9Y698]    4.89
 2     KPGKGSETVV [FZD4, Q9ULV1]    4.92
 3    RQKEVRESKC [SCN8A, Q9UQD0]    3.52
 4  SVTSERETNI [SLC16A7, O60669]    4.11
 5   QSYPSKHDYV [CLDN18, P56856]    3.56
 6   QRPYRRGSEI [KCNJ18, B7U540]    3.66
 7    KKMLQRRTLL [OR8G1, Q15617]    3.81
 8  VKRNSKETVV [MARCHF3, Q86UD3]    6.03
 9    AQRARSPSDV [GPR12, P47775]    3.92
10    EIPAQSPTCV [FZD10, Q9ULW2]    4.11
11    VLYPREGTEV [FOXI1, Q12951]    4.62
12    ELSATVTTDC [TRIP6, Q15654]    3.91
13  ARESQKVSHV [FAM110B, Q8TC76]    4.53
14   RDPPAEWTRV [PTPN18, Q99952]    4.26
15     APIAGFSSFV [SDK2, Q58EX2]    4.49
16   NIAESLESLV [PTPRZ1, P23471]    5.09
17    PPGKHLVTEV [KCNA7, Q96RP8]    5.11
